Values from patent US11952365B2

- Protocol text: in vitro
- Experimental conditions: human

Compound: O=C(NC1CC1)C(=O)[C@H](C[C@@H]1CCNC1=O)NC(=O)[C@@H]1CC2(CCN1C(=O)c1cc3c(C(F)(F)F)cccc3[nH]1)CC2 [Compound 170]
CC50: > 10 µM

Compound: O=C(NC1CC1)C(=O)[C@H](C[C@@H]1CCNC1=O)NC(=O)[C@@H]1[C@H]2CCC[C@H]2CN1C(=O)c1cc2c(Cl)cc(Cl)cc2[nH]1 [Compound 148]
CC50: > 10 µM

Compound: COc1cccc2[nH]c(C(=O)N3CCc4ccccc4[C@H]3C(=O)N[C@@H](C[C@@H]3CCNC3=O)C(=O)CO)cc12 [Compound 106]
CC50: > 10 µM

Compound: O=C1NCC[C@H]1C[C@H](NC(=O)[C@@H]1[C@H]2CCC[C@H]2CN1C(=O)c1cc2c(Cl)cc(F)c(Cl)c2[nH]1)C(=O)CO [Compound 162]
CC50: > 50 µM

Compound: O=C1NCC[C@H]1C[C@H](NC(=O)[C@@H]1[C@H]2CCC[C@H]2CN1C(=O)c1nc2c(Cl)ccc(Cl)c2[nH]1)C(=O)CO [Compound 139]
CC50: > 50 µM

Compound: CS(=O)(=O)Oc1cccc2[nH]c(C(=O)N3C[C@@H]4CCC[C@@H]4[C@H]3C(=O)N[C@@H](C[C@@H]3CCNC3=O)C(=O)CO)cc12 [Compound 155]
CC50: > 50 µM
